Molecular target: hERG (Homo sapiens, UniProt Q12809)
Sequence (Q12809 whole entry): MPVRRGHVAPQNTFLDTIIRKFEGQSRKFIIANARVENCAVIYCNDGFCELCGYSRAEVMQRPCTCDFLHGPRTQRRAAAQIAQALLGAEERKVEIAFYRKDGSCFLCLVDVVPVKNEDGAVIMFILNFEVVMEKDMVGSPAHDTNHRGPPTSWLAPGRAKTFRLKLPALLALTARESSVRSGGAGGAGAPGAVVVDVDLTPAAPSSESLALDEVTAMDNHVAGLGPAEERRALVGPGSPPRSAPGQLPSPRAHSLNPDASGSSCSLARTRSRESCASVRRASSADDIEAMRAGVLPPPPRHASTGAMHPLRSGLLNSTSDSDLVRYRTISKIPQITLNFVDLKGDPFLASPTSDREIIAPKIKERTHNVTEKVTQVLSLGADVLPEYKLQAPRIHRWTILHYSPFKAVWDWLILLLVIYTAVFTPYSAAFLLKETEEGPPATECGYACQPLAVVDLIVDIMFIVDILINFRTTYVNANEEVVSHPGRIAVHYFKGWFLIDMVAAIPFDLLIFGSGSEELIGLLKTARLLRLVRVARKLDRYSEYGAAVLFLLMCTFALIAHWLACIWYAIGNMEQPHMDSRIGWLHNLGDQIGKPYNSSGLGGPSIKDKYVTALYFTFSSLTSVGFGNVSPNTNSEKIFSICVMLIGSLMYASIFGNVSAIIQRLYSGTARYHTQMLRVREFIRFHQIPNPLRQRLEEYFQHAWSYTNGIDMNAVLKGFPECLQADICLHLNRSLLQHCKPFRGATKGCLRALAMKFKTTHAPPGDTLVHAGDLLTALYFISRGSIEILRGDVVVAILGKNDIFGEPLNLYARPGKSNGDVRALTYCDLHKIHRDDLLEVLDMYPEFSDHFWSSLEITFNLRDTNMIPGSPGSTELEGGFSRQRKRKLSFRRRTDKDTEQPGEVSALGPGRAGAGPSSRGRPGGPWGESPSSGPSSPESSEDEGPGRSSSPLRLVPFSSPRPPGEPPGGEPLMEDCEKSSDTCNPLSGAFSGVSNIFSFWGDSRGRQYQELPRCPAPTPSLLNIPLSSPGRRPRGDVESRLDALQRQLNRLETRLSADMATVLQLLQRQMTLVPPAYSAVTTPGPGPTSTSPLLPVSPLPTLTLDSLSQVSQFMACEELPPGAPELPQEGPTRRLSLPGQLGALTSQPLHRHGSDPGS
Assay: Inhibition of human ERG at 10 uM
Quick list: inhibition at 10 µM per entry.
Response body: numeric value in %, unit text excluded.

Return reported inhibition at 10 µM; argument: "COc1cc(/C=C2\CCCN3C2=NOCC[C@@H]3c2cc(F)cc(Cl)c2)ccc1-n1cnc(C)c1"
53

// repeat for COc1cc(/C=C2\CCCN3CCC(c4cc(F)cc(Cl)c4)ON=C23)ccc1-n1cnc(C)c1 (centres undefined) and report
61

// repeat for "COc1cc(/C=C2\CCCN3C2=NOCC[C@@H]3c2ccc(F)c(Cl)c2)ccc1-n1cnc(C)c1" and report
39

Others:
Return reported inhibition at 10 µM; argument: COc1cc(/C=C2\CCCN3CC(c4ccc(F)cc4)CON=C23)ccc1-n1cnc(C)c1 (centres undefined)
90

// repeat for "COc1cc(/C=C2\CCCN3C2=NOCC[C@@H]3c2cccc(F)c2)ccc1-n1cnc(C)c1" and report
86

// repeat for "COc1cc(/C=C2\CCCN3C2=NOCC[C@@H]3c2ccc(F)cc2)ccc1-n1cnc(C)c1" and report
81

// repeat for "CCCO[C@@H]1CON=C2/C(=C/c3ccc(-n4cnc(C)c4)c(OC)c3)CCCN2[C@H]1c1cc(F)cc(F)c1" and report
42

// repeat for "COc1cc(/C=C2\CCCN3C2=NOCC[C@@H]3c2ccc(F)c(F)c2)ccc1-n1cnc(C)c1" and report
56

// repeat for COc1cc(/C=C2\CCCN3CCC(c4ccccc4)ON=C23)ccc1-n1cnc(C)c1 (centres undefined) and report
93

* * *

Target: Gamma-secretase
Assay: Inhibition of gamma secretase (unknown origin) assessed as reduction of Abeta42 production
Type: protein-complex assay, Homo sapiens
pIC50: −log10 of the molar value.
Lab note: anything with pIC50 at or over 7 counts as rule met; the rest go in rule not met.

Worked examples, 5 compounds total:
Test whether the compound COc1cc(/C=C2\CCCN3C2=NOC(C)CC3c2cc(F)c(F)c(F)c2)ccc1-n1cnc(C)c1 (mixture of isomers) records pIC50 of 7 or higher.
rule met

// repeat for "COc1cc(/C=C2\CCCN3C2=NOCC[C@@H]3c2cc(F)cc(Cl)c2)ccc1-n1cnc(C)c1" and report
rule met

// repeat for "COc1cc(/C=C2\CCCN3C2=NOC[C@@H](O)[C@@H]3c2cc(F)cc(F)c2)ccc1-n1cnc(C)c1" and report
rule not met

// repeat for "CCCO[C@@H]1CON=C2/C(=C/c3ccc(-n4cnc(C)c4)c(OC)c3)CCCN2[C@H]1c1cc(F)cc(F)c1" and report
rule not met

// repeat for COc1cc(/C=C2\CCCN3CCC(c4ccc(F)cc4)ON=C23)ccc1-n1cnc(C)c1 (stereo unspecified) and report
rule met

Others:
Test whether the compound COc1cc(/C=C2\CCCN3CCC(c4ccccc4)ON=C23)ccc1-n1cnc(C)c1 (stereo unspecified) records pIC50 of 7 or higher.
rule met

// repeat for COc1cc(/C=C2\CCCN3CCC(c4cc(F)cc(F)c4)ON=C23)ccc1-n1cnc(C)c1 (stereo unspecified) and report
rule met

// repeat for "COc1cc(/C=C2\CCCN3C2=NOCC[C@@H]3c2cccc(F)c2)ccc1-n1cnc(C)c1" and report
rule met

// repeat for "COc1cc(/C=C2\CCCN3C2=NOCC[C@@H]3c2cc(F)cc(F)c2)ccc1-n1cnc(C)c1" and report
rule met

// repeat for "COc1cc(/C=C2\CCCN3C2=NOCC[C@@H]3c2ccc(F)c(Cl)c2)ccc1-n1cnc(C)c1" and report
rule met

// repeat for "COc1cc(/C=C2\CCCN3C2=NOCC[C@@H]3c2ccc(F)cc2F)ccc1-n1cnc(C)c1" and report
rule met

// repeat for "COc1cc(/C=C2\CCCN3C2=NOCC[C@@H]3c2cc(F)c(F)c(F)c2)ccc1-n1cnc(C)c1" and report
rule met

// repeat for "COc1cc(/C=C2\CCCN3C2=NOCC[C@@H]3c2ccc(F)c(F)c2)ccc1-n1cnc(C)c1" and report
rule met

// repeat for "COc1cc(/C=C2\CCCN3C2=NOCC[C@@H]3c2ccc(F)cc2)ccc1-n1cnc(C)c1" and report
rule met

// repeat for "COc1cc(/C=C2\CCCCN3C2=NOC[C@@H]3c2ccc(F)cc2)ccc1-n1cnc(C)c1" and report
rule not met

// repeat for COc1cc(/C=C2\CCCN3CCC(c4cc(F)c(F)c(F)c4)ON=C23)ccc1-n1cnc(C)c1 (stereo unspecified) and report
rule met

* * *

Test: AUC in rat at 10 mg/kg, po measured after 6 hrs post dose
Assay type: ADME, organism-based
Design: time < 6 hr, dose 10 mg/kg, route oral
Conditions: plasma
reported.endpoint: AUC at 6 h (µM·h)
Response body: numeric value in µM·h, unit text excluded.

Return reported AUC at 6 h; argument: "COc1cc(/C=C2\CCCN3C2=NOCC[C@@H]3c2cc(F)c(F)c(F)c2)ccc1-n1cnc(C)c1"
15.8

* * *

Assay: Drug level in rat brain at 10 mg/kg, po measured after 6 hrs post dose
Assay type: ADME, organism-based
Design: dose 10 mg/kg, route oral
Conditions: read-out: Drug uptake
reported.endpoint: concentration at 6 h (ng/g)
Response body: numeric value in ng/g, unit text excluded.

Return reported concentration at 6 h; argument: "COc1cc(/C=C2\CCCN3C2=NOCC[C@@H]3c2cc(F)c(F)c(F)c2)ccc1-n1cnc(C)c1"
1800

* * *

Assay: Ratio of drug level in brain to plasma in rat at 10 mg/kg, po measured after 6 hrs post dose
Assay type: ADME, organism-based
Set-up: dose 10 mg/kg, route oral
Conditions: read-out: BPR
reported.endpoint: Kp at 6 h
Please give the numeric answer without any surrounding text.

Return reported Kp at 6 h; argument: "COc1cc(/C=C2\CCCN3C2=NOCC[C@@H]3c2cc(F)c(F)c(F)c2)ccc1-n1cnc(C)c1"
3.2

* * *

Target: Gamma-secretase (Homo sapiens) (UniProt Q96BI3+Q9NZ42+Q8WW43+P49768+Q92542+P49810)
Assay: Inhibition of gamma secretase (unknown origin) assessed as ratio of Abeta to Abeta42 level
Type: protein-complex assay
Quick list: Ratio per entry.
Please give the numeric answer without any surrounding text.

These recorded examples may help you get a feel for the data.
Return reported Ratio; argument: "COc1cc(/C=C2\CCCN3C2=NOC[C@@H](O)[C@@H]3c2cc(F)cc(F)c2)ccc1-n1cnc(C)c1"
83

// repeat for "COc1cc(/C=C2\CCCN3C2=NOCC[C@@H]3c2cc(F)c(F)c(F)c2)ccc1-n1cnc(C)c1" and report
510

// repeat for "COc1cc(/C=C2\CCCN3C2=NOCC[C@@H]3c2ccc(Cl)c(F)c2)ccc1-n1cnc(C)c1" and report
210

// repeat for "COc1cc(/C=C2\CCCN3C2=NOCC[C@@H]3c2ccc(F)c(Cl)c2)ccc1-n1cnc(C)c1" and report
340

// repeat for COc1cc(/C=C2\CCCN3CCC(c4cc(F)cc(F)c4)ON=C23)ccc1-n1cnc(C)c1 (centres undefined) and report
371

Others:
Return reported Ratio; argument: "COc1cc(/C=C2\CCCCN3C2=NOC[C@@H]3c2ccc(F)cc2)ccc1-n1cnc(C)c1"
35

// repeat for "COc1cc(/C=C2\CCCN3C2=NOCC[C@@H]3c2cccc(F)c2)ccc1-n1cnc(C)c1" and report
572

* * *

Biological target: Gamma-secretase
Test: Inhibition of gamma secretase (unknown origin) assessed as reduction of Abeta42 production
Quick rule for you: IC50 under 100 nM gets t, anything else gets f.

Worked examples, 2 compounds total:
Find out if reported IC50 for COc1cc(/C=C2\CCCN3CC(c4ccc(F)cc4)CON=C23)ccc1-n1cnc(C)c1 (stereo not given) is less than 100 nM
f

// repeat for "COc1cc(/C=C2\CCCCN3C2=NOC[C@@H]3c2cc(F)c(F)c(F)c2)ccc1-n1cnc(C)c1" and report
t

Others:
Find out if reported IC50 for COc1cc(/C=C2\CCCN3CCC(c4cc(F)cc(Cl)c4)ON=C23)ccc1-n1cnc(C)c1 (stereo not given) is less than 100 nM
t

// repeat for COc1cc(/C=C2\CCCN3CC(c4ccccc4)CON=C23)ccc1-n1cnc(C)c1 (stereo not given) and report
f

// repeat for "COc1cc(/C=C2\CCCN3C2=NOCC[C@@H]3c2ccc(Cl)c(F)c2)ccc1-n1cnc(C)c1" and report
t

* * *

Quick list: Ratio per entry.
Molecular target: Gamma-secretase (Homo sapiens) (UniProt Q96BI3+Q9NZ42+Q8WW43+P49768+Q92542+P49810)
Assay: Inhibition of gamma secretase (unknown origin) assessed as ratio of Abeta to Abeta42 level
Assay type: protein-complex assay

These recorded examples may help you get a feel for the data.
Return reported Ratio; argument: "COc1cc(/C=C2\CCCN3C2=NOC[C@@H]3c2cc(F)c(F)c(F)c2)ccc1-n1cnc(C)c1"
607

// repeat for "COc1cc(/C=C2\CCCN3C2=NOCC[C@@H]3c2ccc(F)cc2F)ccc1-n1cnc(C)c1" and report
354

Next:
Return reported Ratio; argument: COc1cc(/C=C2\CCCN3CC(c4ccccc4)CON=C23)ccc1-n1cnc(C)c1 (configuration not stated)
140
